Catalogue of compounds with associated MIC
- Test system: Staphylococcus epidermidis EPI1
- test.summary: MIC, standard agar-dilution assay (Table III)
- Format: cell-based
- assay.context: Staphylococcus epidermidis, EPI1
- Protocol: The MIC's s in Table III were determined by standard agar-dilution assays. The MIC's in Table IV were obtained using a conventional broth-dilution microtiter test.

compound	MIC, µg/mL
CCC1OC(=O)CC(O)C(C)C(OC2OC(C)C(O)C(N(C)C)C2O)C(CC=O)CC(C)C(=O)C=CC(C)=CC1CNC12CC3CC(CC(C3)C1)C2 (centres unmarked) [Compound 1, 23-deoxy-23-(1-adamantanylamino)-OMT]	0.5
CCC1OC(=O)CC(O)C(C)C(OC2OC(C)C(O)C(N(C)C)C2O)C(CC=O)CC(C)C(=O)C=CC(C)=CC1CN1CC2CC=CCC2C1 (centres unmarked) [Compound 37]	0.25
CCC1OC(=O)CC(O)C(C)C(OC2OC(C)C(O)C(N(C)C)C2O)C(CC=O)CC(C)C(=O)C=CC(C)=CC1CN1CCC2CCCCC2C1 (centres unmarked) [Compound 33]	0.5
CCC1OC(=O)CC(O)C(C)C(OC2OC(C)C(O)C(N(C)C)C2O)C(CC=O)CC(C)C(=O)C=CC(C)=CC1CN(Cc1ccccc1)C1CC2CCC1C2 (centres unmarked) [Compound 6]	0.25
CCC1OC(=O)CC(O)C(C)C(OC2OC(C)C(O)C(N(C)C)C2O)C(CC=O)CC(C)C(=O)C=CC(C)=CC1CN1CCCC2CCCCC21 (centres unmarked) [Compound 20, 23-deoxy-23-(decahydroquinolin-1-yl)-OMT]	0.25

###

- Test system: Pasteurella hemolytica 23C
- test.summary: MIC, conventional broth-dilution microtiter test (Table IV)
- Format: cell-based
- assay.context: broth-dilution microtiter; Pasteurella hemolytica 23C; read-out: MIC
Catalogue of compounds with associated MIC

compound	MIC (µg/mL)
CCC1OC(=O)CC(O)C(C)C(OC2OC(C)C(O)C(N(C)C)C2O)C(CC=O)CC(C)C(=O)C=CC(C)=CC1CN1CC2(C)CC1CC(C)(C)C2 (centres unmarked) [Compound 23]	1.56
CCC1OC(=O)CC(O)C(C)C(OC2OC(C)C(O)C(N(C)C)C2O)C(CC=O)CC(C)C(=O)C=CC(C)=CC1CN1C2CCCCC2C2CCCCC21 (centres unmarked) [Compound 25]	1.56
CCC1OC(=O)CC(O)C(C)C(OC2OC(C)C(O)C(N(C)C)C2O)C(CC=O)CC(C)C(=O)C=CC(C)=CC1CN1CC2CCC(CC2)C1 (centres unmarked) [Compound 17, 23-(3-azabicyclo[3.2.2]nonan-3-yl)-OMT]	0.39
CCC1OC(=O)CC(O)C(C)C(OC2OC(C)C(O)C(N(C)C)C2O)C(CC=O)CC(C)C(=O)C=CC(C)=CC1CN1CCCC2CCCCC21 (centres unmarked) [Compound 20, 23-deoxy-23-(decahydroquinolin-1-yl)-OMT]	0.78
CCC1OC(=O)CC(O)C(C)C(OC2OC(C)C(O)C(N(C)C)C2O)C(CC=O)CC(C)C(=O)C=CC(C)=CC1CN1CCCC12CCCCC2 (centres unmarked) [Compound 31]	0.39

###

- Tested on: Streptococcus pyogenes
- test.summary: ED50 vs Streptococcus pyogenes experimental infection in mice (Table VI)
- Format: in vivo
- assay.context: po, two doses, several values = results from more than one test, read-out: ED50 Oral
Catalogue of molecules with associated ED50
measure: ED50 (mg/kg)

molecule	prefix.operator	measured.number
CCC1OC(=O)CC(O)C(C)C(OC2OC(C)C(O)C(N(C)C)C2O)C(CC=O)CC(C)C(=O)C=CC(C)=CC1CNC12CC3CC(CC(C3)C1)C2 (stereo not drawn)	>	100
CCC1OC(=O)CC(O)C(C)C(OC2OC(C)C(O)C(N(C)C)C2O)C(CC=O)CC(C)C(=O)C=CC(C)=CC1CN(Cc1ccccc1)C1CC2CCC1C2 (stereo not drawn)	>	100
CCC1OC(=O)CC(O)C(C)C(OC2OC(C)C(O)C(N(C)C)C2O)C(CC=O)CC(C)C(=O)C=CC(C)=CC1CN1CC2CC=CCC2C1 (stereo not drawn)	=	87
CCC1OC(=O)CC(O)C(C)C(OC2OC(C)C(O)C(N(C)C)C2O)C(CC=O)CC(C)C(=O)C=CC(C)=CC1CN1CC2CCC(CC2)C1 (stereo not drawn) [Compound 17, 23-(3-azabicyclo[3.2.2]nonan-3-yl)-OMT]	>	100
CCC1OC(=O)CC(O)C(C)C(OC2OC(C)C(O)C(N(C)C)C2O)C(CC=O)CC(C)C(=O)C=CC(C)=CC1CN1C2CCCCC2C2CCCCC21 (stereo not drawn)	=	63
CCC1OC(=O)CC(O)C(C)C(OC2OC(C)C(O)C(N(C)C)C2O)C(CC=O)CC(C)C(=O)C=CC(C)=CC1CN1CCCC12CCCCC2 (stereo not drawn)	=	59.5
CCC1OC(=O)CC(O)C(C)C(OC2OC(C)C(O)C(N(C)C)C2O)C(CC=O)CC(C)C(=O)C=CC(C)=CC1CN1CCCC2CCCCC21 (stereo not drawn) [Compound 20, 23-deoxy-23-(decahydroquinolin-1-yl)-OMT]	=	77
CCC1OC(=O)CC(O)C(C)C(OC2OC(C)C(O)C(N(C)C)C2O)C(CC=O)CC(C)C(=O)C=CC(C)=CC1CN1CCC2CCCCC21 (stereo not drawn)	=	87.1
CCC1OC(=O)CC(O)C(C)C(OC2OC(C)C(O)C(N(C)C)C2O)C(CC=O)CC(C)C(=O)C=CC(C)=CC1CN1CC2(C)CC1CC(C)(C)C2 (stereo not drawn)	=	100

###

- System: Pasteurella multocida 68C
- test.summary: MIC, conventional broth-dilution microtiter test (Table IV)
- Format: cell-based
- assay.context: broth-dilution microtiter; Pasteurella multocida 68C; read-out: MIC
measure: MIC

compound	result
CCC1OC(=O)CC(O)C(C)C(OC2OC(C)C(O)C(N(C)C)C2O)C(CC=O)CC(C)C(=O)C=CC(C)=CC1CN1CCCC2CCCCC21 (centres unmarked) [Compound 20, 23-deoxy-23-(decahydroquinolin-1-yl)-OMT]	0.78 µg/mL
CCC1OC(=O)CC(O)C(C)C(OC2OC(C)C(O)C(N(C)C)C2O)C(CC=O)CC(C)C(=O)C=CC(C)=CC1CN1C2CCCCC2C2CCCCC21 (centres unmarked)	1.56 µg/mL
CCC1OC(=O)CC(O)C(C)C(OC2OC(C)C(O)C(N(C)C)C2O)C(CC=O)CC(C)C(=O)C=CC(C)=CC1CN1CC2CCC(CC2)C1 (centres unmarked) [Compound 17, 23-(3-azabicyclo[3.2.2]nonan-3-yl)-OMT]	0.39 µg/mL
CCC1OC(=O)CC(O)C(C)C(OC2OC(C)C(O)C(N(C)C)C2O)C(CC=O)CC(C)C(=O)C=CC(C)=CC1CN1CC2(C)CC1CC(C)(C)C2 (centres unmarked)	0.78 µg/mL
CCC1OC(=O)CC(O)C(C)C(OC2OC(C)C(O)C(N(C)C)C2O)C(CC=O)CC(C)C(=O)C=CC(C)=CC1CN1CCCC12CCCCC2 (centres unmarked)	0.39 µg/mL

###

Catalogue of compounds with associated MIC
- Tested on: Pasteurella multocida 40G
- test.summary: MIC, conventional broth-dilution microtiter test (Table IV)
- Assay type: cell-based
- assay.context: broth-dilution microtiter; Pasteurella multocida 40G; read-out: MIC
- Procedure: The MIC's s in Table III were determined by standard agar-dilution assays. The MIC's in Table IV were obtained using a conventional broth-dilution microtiter test.
measure: MIC (µg/mL)

compound	measurement.unit	measured.number
CCC1OC(=O)CC(O)C(C)C(OC2OC(C)C(O)C(N(C)C)C2O)C(CC=O)CC(C)C(=O)C=CC(C)=CC1CN1C2CCCCC2C2CCCCC21 (centres unmarked) [Compound 25]	µg/mL	1.56
CCC1OC(=O)CC(O)C(C)C(OC2OC(C)C(O)C(N(C)C)C2O)C(CC=O)CC(C)C(=O)C=CC(C)=CC1CN1CCCC12CCCCC2 (centres unmarked) [Compound 31]	µg/mL	0.195
CCC1OC(=O)CC(O)C(C)C(OC2OC(C)C(O)C(N(C)C)C2O)C(CC=O)CC(C)C(=O)C=CC(C)=CC1CN1CC2CCC(CC2)C1 (centres unmarked) [Compound 17, 23-(3-azabicyclo[3.2.2]nonan-3-yl)-OMT]	µg/mL	0.39
CCC1OC(=O)CC(O)C(C)C(OC2OC(C)C(O)C(N(C)C)C2O)C(CC=O)CC(C)C(=O)C=CC(C)=CC1CN1CC2(C)CC1CC(C)(C)C2 (centres unmarked) [Compound 23]	µg/mL	0.78
CCC1OC(=O)CC(O)C(C)C(OC2OC(C)C(O)C(N(C)C)C2O)C(CC=O)CC(C)C(=O)C=CC(C)=CC1CN1CCCC2CCCCC21 (centres unmarked) [Compound 20, 23-deoxy-23-(decahydroquinolin-1-yl)-OMT]	µg/mL	0.39

###

Catalogue of compounds with associated MIC
- Test system: Haemophilus influenzae 76
- test.summary: MIC, standard agar-dilution assay (Table III)
- Type: cell-based
- assay.context: agar dilution; Haemophilus influenzae 76, ampicillin-resistant strain; read-out: MIC
measure: MIC (µg/mL)

compound	measured.number
CCC1OC(=O)CC(O)C(C)C(OC2OC(C)C(O)C(N(C)C)C2O)C(CC=O)CC(C)C(=O)C=CC(C)=CC1CN(Cc1ccccc1)C1CC2CCC1C2 (centres unmarked)	0.5
CCC1OC(=O)CC(O)C(C)C(OC2OC(C)C(O)C(N(C)C)C2O)C(CC=O)CC(C)C(=O)C=CC(C)=CC1CN1CC2(C)CC1CC(C)(C)C2 (centres unmarked)	1
CCC1OC(=O)CC(O)C(C)C(OC2OC(C)C(O)C(N(C)C)C2O)C(CC=O)CC(C)C(=O)C=CC(C)=CC1CN1CCCC12CCCCC2 (centres unmarked)	2
CCC1OC(=O)CC(O)C(C)C(OC2OC(C)C(O)C(N(C)C)C2O)C(CC=O)CC(C)C(=O)C=CC(C)=CC1CN1CC2CC=CCC2C1 (centres unmarked)	1
CCC1OC(=O)CC(O)C(C)C(OC2OC(C)C(O)C(N(C)C)C2O)C(CC=O)CC(C)C(=O)C=CC(C)=CC1CN1CCC2(CCCCC2)CC1 (centres unmarked)	2
CCC1OC(=O)CC(O)C(C)C(OC2OC(C)C(O)C(N(C)C)C2O)C(CC=O)CC(C)C(=O)C=CC(C)=CC1CN1CCC2CCCCC2C1 (centres unmarked)	0.25
CCC1OC(=O)CC(O)C(C)C(OC2OC(C)C(O)C(N(C)C)C2O)C(CC=O)CC(C)C(=O)C=CC(C)=CC1CN1CCC2CCCCC21 (centres unmarked)	1
CCC1OC(=O)CC(O)C(C)C(OC2OC(C)C(O)C(N(C)C)C2O)C(CC=O)CC(C)C(=O)C=CC(C)=CC1CN1CCCC2CCCCC21 (centres unmarked) [Compound 20, 23-deoxy-23-(decahydroquinolin-1-yl)-OMT]	1
CCC1OC(=O)CC(O)C(C)C(OC2OC(C)C(O)C(N(C)C)C2O)C(CC=O)CC(C)C(=O)C=CC(C)=CC1CNC12CC3CC(CC(C3)C1)C2 (centres unmarked)	0.5
CCC1OC(=O)CC(O)C(C)C(OC2OC(C)C(O)C(N(C)C)C2O)C(CC=O)CC(C)C(=O)C=CC(C)=CC1CN1CCc2ccccc2C1 (centres unmarked)	1
CCC1OC(=O)CC(O)C(C)C(OC2OC(C)C(O)C(N(C)C)C2O)C(CC=O)CC(C)C(=O)C=CC(C)=CC1CN1C2CCCCC2C2CCCCC21 (centres unmarked)	1

Hello, the source for this data is patent US4604380A, in case you need it.
